- system: CYP3A4 (Homo sapiens)
- Sequence (P08684 whole entry): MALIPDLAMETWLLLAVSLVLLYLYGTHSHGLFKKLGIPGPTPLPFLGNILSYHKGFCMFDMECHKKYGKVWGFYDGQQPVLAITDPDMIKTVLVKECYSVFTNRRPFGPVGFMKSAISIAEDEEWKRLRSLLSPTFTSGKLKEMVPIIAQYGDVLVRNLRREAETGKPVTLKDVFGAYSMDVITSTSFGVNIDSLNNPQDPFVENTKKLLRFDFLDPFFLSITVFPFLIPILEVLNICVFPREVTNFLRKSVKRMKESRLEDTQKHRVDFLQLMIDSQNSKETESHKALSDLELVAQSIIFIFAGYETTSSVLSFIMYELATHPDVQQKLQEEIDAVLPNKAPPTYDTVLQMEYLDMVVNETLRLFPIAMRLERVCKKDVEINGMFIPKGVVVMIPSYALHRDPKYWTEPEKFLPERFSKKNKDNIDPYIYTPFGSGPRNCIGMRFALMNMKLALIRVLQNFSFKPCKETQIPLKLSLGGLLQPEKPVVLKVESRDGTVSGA
- method notes: Inhibition of CYP3A4 (testosterone, midazolam) in pooled human liver microsomes
- measurement parameters: read-out: IC50, CYP3A4-M; pooled HLMs; probe midazolam

[
  {
    "compound": "O=c1c(O)cc([C@H]2Oc3cc(O)cc(O)c3C[C@H]2O)cc2c([C@H]3Oc4cc(O)cc(O)c4C[C@H]3O)cc(O)c(O)c12 [Theaflavin, theaflavin]",
    "system": "CYP3A4 (Homo sapiens)",
    "IC50": "> 20 µM"
  }
]

----------
- system: UGT1A4 (Homo sapiens)
- Sequence (P22310 29-534): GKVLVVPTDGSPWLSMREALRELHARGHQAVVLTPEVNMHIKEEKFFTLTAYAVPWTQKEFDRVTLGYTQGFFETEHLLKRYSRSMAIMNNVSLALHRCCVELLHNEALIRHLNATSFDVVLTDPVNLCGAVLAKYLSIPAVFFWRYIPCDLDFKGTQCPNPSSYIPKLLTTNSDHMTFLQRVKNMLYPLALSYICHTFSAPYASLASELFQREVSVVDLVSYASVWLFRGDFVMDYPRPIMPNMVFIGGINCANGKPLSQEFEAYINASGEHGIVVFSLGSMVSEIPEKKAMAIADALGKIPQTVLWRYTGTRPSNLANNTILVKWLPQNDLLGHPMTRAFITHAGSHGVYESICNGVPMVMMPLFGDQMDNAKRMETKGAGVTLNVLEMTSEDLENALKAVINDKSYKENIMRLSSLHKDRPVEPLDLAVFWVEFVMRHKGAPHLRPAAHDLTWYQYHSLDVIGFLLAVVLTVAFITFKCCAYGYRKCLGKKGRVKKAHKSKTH
- method notes: Inhibition of UGT1A4-catalyzed trifluoperazine glucuronidation, human recombinant UGT
pIC50: −log10 of the molar value.
recorded metric: pIC50

[
  {
    "chemical structure": "O=c1c(O)cc([C@H]2Oc3cc(O)cc(O)c3C[C@H]2O)cc2c([C@H]3Oc4cc(O)cc(O)c4C[C@H]3O)cc(O)c(O)c12",
    "recorded metric": "pIC50",
    "measured": "< 4.70"
  }
]

----------
- system: CYP2D6 (Homo sapiens)
- Sequence (P10635 whole entry): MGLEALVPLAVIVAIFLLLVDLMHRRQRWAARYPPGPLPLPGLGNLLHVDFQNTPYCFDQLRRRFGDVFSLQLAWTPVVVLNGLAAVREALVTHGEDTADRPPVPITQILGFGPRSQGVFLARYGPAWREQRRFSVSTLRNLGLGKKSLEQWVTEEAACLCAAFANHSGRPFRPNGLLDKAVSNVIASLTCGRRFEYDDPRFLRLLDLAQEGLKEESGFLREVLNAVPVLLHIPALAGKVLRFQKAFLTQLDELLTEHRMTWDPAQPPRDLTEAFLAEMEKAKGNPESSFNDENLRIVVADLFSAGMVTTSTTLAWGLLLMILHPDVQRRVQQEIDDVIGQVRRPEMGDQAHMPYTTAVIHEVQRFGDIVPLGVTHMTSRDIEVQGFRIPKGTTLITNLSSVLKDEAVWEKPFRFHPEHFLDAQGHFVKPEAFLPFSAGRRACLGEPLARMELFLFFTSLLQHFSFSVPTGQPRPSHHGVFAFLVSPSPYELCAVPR
recorded metric: IC50

[
  {
    "chemical structure": "O=c1c(O)cc([C@H]2Oc3cc(O)cc(O)c3C[C@H]2O)cc2c([C@H]3Oc4cc(O)cc(O)c4C[C@H]3O)cc(O)c(O)c12",
    "recorded metric": "IC50",
    "measured": "> 20 µM"
  }
]

----------
- system: UGT1A3 (Homo sapiens)
- Sequence (P35503 29-534): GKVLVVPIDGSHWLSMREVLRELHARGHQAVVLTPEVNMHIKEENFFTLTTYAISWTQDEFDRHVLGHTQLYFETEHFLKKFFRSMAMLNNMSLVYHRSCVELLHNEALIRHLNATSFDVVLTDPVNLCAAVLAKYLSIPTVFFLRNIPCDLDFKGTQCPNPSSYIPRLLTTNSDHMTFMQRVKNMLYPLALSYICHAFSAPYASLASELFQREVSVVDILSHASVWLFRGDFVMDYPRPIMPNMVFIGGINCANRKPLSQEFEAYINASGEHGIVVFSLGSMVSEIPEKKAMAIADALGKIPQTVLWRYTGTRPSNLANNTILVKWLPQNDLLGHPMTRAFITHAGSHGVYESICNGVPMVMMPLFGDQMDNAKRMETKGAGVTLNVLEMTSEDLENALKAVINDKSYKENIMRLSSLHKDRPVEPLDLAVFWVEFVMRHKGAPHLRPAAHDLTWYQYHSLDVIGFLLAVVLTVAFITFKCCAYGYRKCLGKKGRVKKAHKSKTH
- method notes: Inhibition of UGT1A3-mediated beta-estradiol glucuronidation, human recombinant UGT
pIC50: −log10 of the molar value.

[
  {
    "compound": "O=c1c(O)cc([C@H]2Oc3cc(O)cc(O)c3C[C@H]2O)cc2c([C@H]3Oc4cc(O)cc(O)c4C[C@H]3O)cc(O)c(O)c12 [Theaflavin, theaflavin]",
    "pIC50": "< 4.70"
  }
]

----------
- system: UGT1A1 (Homo sapiens, UniProt P22309)
- Sequence (P22309 26-533): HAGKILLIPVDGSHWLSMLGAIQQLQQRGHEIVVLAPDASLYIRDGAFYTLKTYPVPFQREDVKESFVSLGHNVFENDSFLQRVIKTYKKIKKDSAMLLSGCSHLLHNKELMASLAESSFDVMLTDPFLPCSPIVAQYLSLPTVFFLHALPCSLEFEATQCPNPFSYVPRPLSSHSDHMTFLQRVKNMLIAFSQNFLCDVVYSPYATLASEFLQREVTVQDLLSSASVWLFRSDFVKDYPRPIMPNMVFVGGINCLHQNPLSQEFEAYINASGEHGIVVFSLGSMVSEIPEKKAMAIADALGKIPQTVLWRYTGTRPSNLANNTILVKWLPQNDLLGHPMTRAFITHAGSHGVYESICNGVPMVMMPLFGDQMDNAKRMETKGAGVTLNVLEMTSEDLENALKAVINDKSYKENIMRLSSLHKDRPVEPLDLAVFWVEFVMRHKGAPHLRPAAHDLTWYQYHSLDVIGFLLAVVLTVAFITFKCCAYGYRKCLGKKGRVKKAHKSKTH
- method notes: Inhibition of UGT1A1-catalyzed beta-estradiol glucuronidation, human recombinant UGT

[
  {
    "chemical structure": "O=c1c(O)cc([C@H]2Oc3cc(O)cc(O)c3C[C@H]2O)cc2c([C@H]3Oc4cc(O)cc(O)c4C[C@H]3O)cc(O)c(O)c12",
    "IC50 / µM": 3.89
  }
]

----------
- system: CYP1A2 (Homo sapiens, UniProt P05177)
- Sequence (P05177 whole entry): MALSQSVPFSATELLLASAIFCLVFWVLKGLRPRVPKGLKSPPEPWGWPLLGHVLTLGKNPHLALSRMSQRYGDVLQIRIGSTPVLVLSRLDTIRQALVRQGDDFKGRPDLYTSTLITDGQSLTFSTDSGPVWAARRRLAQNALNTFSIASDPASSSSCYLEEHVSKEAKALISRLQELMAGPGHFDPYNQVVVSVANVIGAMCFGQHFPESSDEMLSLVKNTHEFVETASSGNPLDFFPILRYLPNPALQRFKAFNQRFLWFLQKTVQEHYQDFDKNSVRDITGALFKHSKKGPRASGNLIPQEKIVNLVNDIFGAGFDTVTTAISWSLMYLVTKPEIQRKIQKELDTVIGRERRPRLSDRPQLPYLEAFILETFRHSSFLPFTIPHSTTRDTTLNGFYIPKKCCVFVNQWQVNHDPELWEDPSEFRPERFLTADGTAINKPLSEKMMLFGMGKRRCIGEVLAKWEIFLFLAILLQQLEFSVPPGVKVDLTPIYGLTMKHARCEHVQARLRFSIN
- method notes: Inhibition of CYP1A2-catalyzed phenacetin metabolism in pooled human liver microsomes
recorded metric: IC50

[
  {
    "chemical structure": "O=c1c(O)cc([C@H]2Oc3cc(O)cc(O)c3C[C@H]2O)cc2c([C@H]3Oc4cc(O)cc(O)c4C[C@H]3O)cc(O)c(O)c12",
    "system": "CYP1A2 (Homo sapiens, UniProt P05177)",
    "recorded metric": "IC50",
    "measured": "> 20 µM"
  }
]
